# ASSAY OVERVIEW: Soluble peptide degradation, Media condition (cell-conditioned media, LC-MS)
# Type: in vitro ADME, human
# CONDITION SUMMARY: human; Figure 2B heatmap; pooled TAILS-derived soluble peptides in 24 h hMSC-conditioned media without cells; 24 h; LC-MS, ratio to βFβA6 internal standard, 24 h / 0 h; N = 5; read-out: Fraction of peptide remaining at 24 hours: hMSC Media
Where a SMILES comes first, the peptide text is derived from it. [ ]: non-standard residue; d: D form. βAla = NCCC(=O)O
Listed here are compounds together with their documented remaining at 24 h.
Give a bare numeral; the unit % is implied.

1. CC(=O)NCCC(=O)N1CCC[C@H]1C(=O)N1CCC[C@H]1C(=O)N[C@@H](CO)C(=O)N[C@@H](CCCNC(=N)N)C(=O)N[C@@H](Cc1c[nH]cn1)C(=O)N[C@@H](CC(=O)O)C(=O)N[C@H](C(=O)NCC(=O)N[C@H](C(=O)N1CCC[C@H]1C(=O)NCCC(N)=O)[C@@H](C)O)[C@@H](C)O [PPSRHDTGTP] (Ac-[βAla]PPSRHDTGTP[βAla]-NH2); 87
2. CC(=O)NCCC(=O)N[C@@H](CCC(=O)O)C(=O)N[C@@H](CO)C(=O)N[C@@H](CO)C(=O)N[C@@H](Cc1c[nH]cn1)C(=O)N[C@@H](CC(N)=O)C(=O)N[C@H](C(=O)N[C@@H](Cc1ccc(O)cc1)C(=O)N[C@@H](CC(C)C)C(=O)N[C@H](C(=O)N[C@@H](CCC(N)=O)C(=O)NCCC(N)=O)[C@@H](C)O)[C@@H](C)O [ESSHNTYLTQ] (Ac-[βAla]ESSHNTYLTQ[βAla]-NH2); 98
3. CC[C@H](C)[C@H](NC(=O)[C@H](CCC(=O)O)NC(=O)[C@H](C)NC(=O)[C@H](CC(C)C)NC(=O)[C@H](C)NC(=O)[C@H](CC(=O)O)NC(=O)CCNC(C)=O)C(=O)N[C@@H](CC(C)C)C(=O)N[C@@H](CCC(N)=O)C(=O)N[C@@H](C)C(=O)N[C@@H](CC(N)=O)C(=O)N[C@@H](CC(=O)O)C(=O)NCCC(N)=O [DALAEILQAND] (Ac-[βAla]DALAEILQAND[βAla]-NH2); 90

Q. Fill in remaining at 24 h for record CC(=O)NCCC(=O)N[C@@H](C)C(=O)N[C@@H](CO)C(=O)N[C@@H](C)C(=O)N1CCC[C@H]1C(=O)N[C@@H](C)C(=O)N[C@@H](CCCNC(=N)N)C(=O)N1CCC[C@H]1C(=O)N[C@@H](C)C(=O)N[C@@H](CC(C)C)C(=O)N[C@@H](CO)C(=O)NCCC(N)=O [ASAPARPALS] (Ac-[βAla]ASAPARPALS[βAla]-NH2)
A. 96

Q. Fill in remaining at 24 h for record CC(=O)NCCC(=O)N[C@@H](CCC(=O)O)C(=O)N[C@@H](CCC(=O)O)C(=O)N[C@@H](CO)C(=O)N[C@@H](CO)C(=O)N[C@@H](Cc1c[nH]c2ccccc12)C(=O)NCC(=O)NCC(=O)N[C@@H](CO)C(=O)N1CCC[C@H]1C(=O)N[C@@H](CO)C(=O)N1CCC[C@H]1C(=O)N[C@H](C(=O)N[C@@H](CCCNC(=N)N)C(=O)NCCC(N)=O)C(C)C [EESSWGGSPSPVR] (Ac-[βAla]EESSWGGSPSPVR[βAla]-NH2)
A. 99

Q. Fill in remaining at 24 h for record CC(=O)NCCC(=O)N[C@@H](CC(C)C)C(=O)N[C@@H](C)C(=O)N[C@@H](CC(C)C)C(=O)N[C@@H](CCC(=O)O)C(=O)N[C@@H](C)C(=O)N[C@@H](CCCNC(=N)N)C(=O)N[C@H](C(=O)N[C@H](C(=O)N[C@@H](CC(=O)O)C(=O)N[C@@H](CC(C)C)C(=O)NCCC(N)=O)[C@@H](C)O)[C@@H](C)O [LALEARTTDL] (Ac-[βAla]LALEARTTDL[βAla]-NH2)
A. 86

---

# ASSAY OVERVIEW: Soluble peptide degradation, Cells condition (LC-MS)
# Type: in vitro ADME, human
# CONDITION SUMMARY: human, hMSCs in culture with fresh media (Cells condition); Figure 3C; individually synthesized soluble peptide, 50 µM, media on hMSCs; 24 h; LC-MS, ratio to βFβA6; N = 6; read-out: Fraction of peptide remaining after 24 hours: hMSC Cells
Where a SMILES comes first, the peptide text is derived from it. [ ]: non-standard residue; d: D form. βAla = NCCC(=O)O
MEASURE NAME: remaining at 24 h, 50 µM (%)
Give a bare numeral; the unit % is implied.

Q. Fill in remaining at 24 h, 50 µM for record CC(=O)NCCC(=O)N[C@@H](CCCCN)C(=O)N[C@@H](CC(C)C)C(=O)N[C@H](C(=O)N[C@@H](C)C(=O)N[C@@H](CC(=O)O)C(=O)N[C@@H](CC(N)=O)C(=O)N[C@@H](Cc1ccc(O)cc1)C(=O)N[C@@H](C)C(=O)N[C@@H](CO)C(=O)N[C@@H](C)C(=O)N[C@@H](CCC(=O)O)C(=O)NCCC(N)=O)C(C)C [KLVAD-NY] (Ac-[βAla]KLVADNYASAE[βAla]-NH2)
A. 78

---

# ASSAY OVERVIEW: Soluble peptide degradation, Media condition (cell-conditioned media, LC-MS)
# Type: in vitro ADME, human
# CONDITION SUMMARY: human, hMSC-conditioned media without cells, no exogenous MMP-14; Figure 7 study; 24 h, LC-MS, N = 3 with technical triplicates; read-out: peptide remaining in hMSC conditioned media without exogenous MMP-14
Where a SMILES comes first, the peptide text is derived from it. [ ]: non-standard residue; d: D form. βAla = NCCC(=O)O
MEASURE NAME: remaining at 24 h, 50 µM (%)
Give a bare numeral; the unit % is implied.

Q. Fill in remaining at 24 h, 50 µM for record CC[C@H](C)[C@H](NC(=O)CNC(=O)[C@H](CCC(N)=O)NC(=O)[C@@H]1CCCN1C(=O)CNC(=O)CCNC(C)=O)C(=O)N[C@@H](Cc1c[nH]c2ccccc12)C(=O)NCC(=O)N[C@@H](CCC(N)=O)C(=O)NCCC(N)=O [PanMMP, reference compound] (Ac-[βAla]GPQGIWGQ[βAla]-NH2)
A. 85

---

# ASSAY OVERVIEW: Soluble peptide degradation, Media condition (cell-conditioned media, LC-MS)
# Assay type: in vitro ADME, human
# CONDITION SUMMARY: human; Figure 2B heatmap; pooled TAILS-derived soluble peptides in 24 h hUVEC-conditioned media without cells; 24 h; LC-MS, ratio to βFβA6 internal standard, 24 h / 0 h; N = 5; read-out: Fraction of peptide remaining at 24 hours: hUVEC Media
Where a SMILES comes first, the peptide text is derived from it. [ ]: non-standard residue; d: D form. βAla = NCCC(=O)O
Listed here are compounds together with their documented remaining at 24 h.
Give a bare numeral; the unit % is implied.

// known answers, use as guide
1. CC[C@H](C)[C@H](NC(=O)CNC(=O)[C@H](CCC(N)=O)NC(=O)[C@@H]1CCCN1C(=O)CNC(=O)CCNC(C)=O)C(=O)N[C@@H](Cc1c[nH]c2ccccc12)C(=O)NCC(=O)N[C@@H](CCC(N)=O)C(=O)NCCC(N)=O [PanMMP, reference compound] (Ac-[βAla]GPQGIWGQ[βAla]-NH2); 93
2. CC(=O)NCCC(=O)N[C@@H](CCC(=O)O)C(=O)N[C@@H](CCC(=O)O)C(=O)N[C@@H](CO)C(=O)N[C@@H](CO)C(=O)N[C@@H](Cc1c[nH]c2ccccc12)C(=O)NCC(=O)NCC(=O)N[C@@H](CO)C(=O)N1CCC[C@H]1C(=O)N[C@@H](CO)C(=O)N1CCC[C@H]1C(=O)N[C@H](C(=O)N[C@@H](CCCNC(=N)N)C(=O)NCCC(N)=O)C(C)C [EESSWGGSPSPVR] (Ac-[βAla]EESSWGGSPSPVR[βAla]-NH2); 102
3. CC(=O)NCCC(=O)N[C@@H](CCCCN)C(=O)N[C@@H](C)C(=O)N1CCC[C@H]1C(=O)NCC(=O)NCC(=O)N[C@@H](CCCCN)C(=O)N[C@@H](C)C(=O)N[C@@H](C)C(=O)NCC(=O)N1CCC[C@H]1C(=O)N[C@@H](C)C(=O)NCCC(N)=O [KAPGGKAAGPA] (Ac-[βAla]KAPGGKAAGPA[βAla]-NH2); 88
4. CC[C@H](C)[C@H](NC(=O)[C@H](CCCCN)NC(=O)[C@@H](NC(=O)[C@H](CO)NC(=O)[C@H](CO)NC(=O)[C@@H]1CCCN1C(=O)CCNC(C)=O)[C@@H](C)CC)C(=O)N[C@@H](CCCCN)C(=O)N[C@@H](CO)C(=O)N[C@@H](C)C(=O)N[C@@H](CC(=O)O)C(=O)N[C@@H](CCCCN)C(=O)NCCC(N)=O [PSSIKIKSADK] (Ac-[βAla]PSSIKIKSADK[βAla]-NH2); 93
5. CC(=O)NCCC(=O)N[C@@H](CCC(=O)O)C(=O)N[C@@H](CO)C(=O)N[C@@H](CO)C(=O)N[C@@H](Cc1c[nH]cn1)C(=O)N[C@@H](CC(N)=O)C(=O)N[C@H](C(=O)N[C@@H](Cc1ccc(O)cc1)C(=O)N[C@@H](CC(C)C)C(=O)N[C@H](C(=O)N[C@@H](CCC(N)=O)C(=O)NCCC(N)=O)[C@@H](C)O)[C@@H](C)O [ESSHNTYLTQ] (Ac-[βAla]ESSHNTYLTQ[βAla]-NH2); 102

Now look at this one.
Q. Fill in remaining at 24 h for record CC(=O)NCCC(=O)N[C@@H](C)C(=O)N[C@@H](CO)C(=O)N[C@@H](C)C(=O)N1CCC[C@H]1C(=O)N[C@@H](C)C(=O)N[C@@H](CCCNC(=N)N)C(=O)N1CCC[C@H]1C(=O)N[C@@H](C)C(=O)N[C@@H](CC(C)C)C(=O)N[C@@H](CO)C(=O)NCCC(N)=O [ASAPARPALS] (Ac-[βAla]ASAPARPALS[βAla]-NH2)
A. 94
